Entry source: BigSolDB 2.1

Conditions: in water, 278.25 K
measureName: solubility (mole fraction)
Number only, no unit.

Input N=C(N)N.O=[N+]([O-])O . Output solubility (mole fraction): 0.009

----------
Conditions: in water, 328.35 K
measureName: solubility (mole fraction)
Lab note: jot the number down without any unit.

N=C(N)N.O=[N+]([O-])O yielded solubility (mole fraction) of 0.0463

----------
Conditions: in n-propanol, 308.35 K
measureName: solubility (mole fraction)

Per the records, this compound ( N=C(N)N.O=[N+]([O-])O ) has solubility (mole fraction) equal to 0.0048

----------
Details: in water, 288.25 K
measureName: solubility (mole fraction)
Please reply with the value in numeric form only.

Record N=C(N)N.O=[N+]([O-])O . Reported solubility (mole fraction): 0.0136

----------
Settings: in n-propanol, 293.15 K
measureName: solubility (mole fraction)

Entry under test: N=C(N)N.O=[N+]([O-])O . Its solubility (mole fraction) was 0.002

----------
Conditions: in n-propanol, 313.15 K
measureName: solubility (mole fraction)
Please reply with the value in numeric form only.

The reported solubility (mole fraction) of the molecule N=C(N)N.O=[N+]([O-])O was 0.0061

----------
Conditions: in acetone, 283.15 K
measureName: solubility (mole fraction)
Lab note: write the figure by itself, no unit.

molecule N=C(N)N.O=[N+]([O-])O , solubility (mole fraction) observed: 0.0005

----------
Settings: in ethanol, 288.35 K
measureName: solubility (mole fraction)

Looking up N=C(N)N.O=[N+]([O-])O , I found its solubility (mole fraction) recorded as 0.0043

----------
Settings: in methanol, 283.25 K
measureName: solubility (mole fraction)
The answer should be a number; do not append a unit.

The reported solubility (mole fraction) of the compound N=C(N)N.O=[N+]([O-])O was 0.0075

----------
Details: in ethanol, 283.15 K
measureName: solubility (mole fraction)
// no unit string in output, number only

Record N=C(N)N.O=[N+]([O-])O . Reported solubility (mole fraction): 0.0037

----------
Settings: in ethanol, 318.05 K
measureName: solubility (mole fraction)

// N=C(N)N.O=[N+]([O-])O : solubility (mole fraction) value = 0.0108

----------
Settings: in acetone, 323.15 K
measureName: solubility (mole fraction)

Entry N=C(N)N.O=[N+]([O-])O , solubility (mole fraction) reported as 0.0503

----------
Conditions: in water, 323.25 K
measureName: solubility (mole fraction)
No unit in the answer, only the number.

The compound identified as N=C(N)N.O=[N+]([O-])O registered its solubility (mole fraction) at 0.0401

----------
Conditions: in acetone, 303.15 K
measureName: solubility (mole fraction)

# compound N=C(N)N.O=[N+]([O-])O ; its solubility (mole fraction) = 0.0052

----------
Conditions: in n-propanol, 298.35 K
measureName: solubility (mole fraction)
// return just the number, without any unit appended

Record N=C(N)N.O=[N+]([O-])O , field solubility (mole fraction): 0.0029

----------
Details: in acetone, 313.15 K
measureName: solubility (mole fraction)
Form field (numeric): enter value without unit.

Form field solubility (mole fraction), entry N=C(N)N.O=[N+]([O-])O : 0.0158

----------
Settings: in water, 313.05 K
measureName: solubility (mole fraction)
# answer = number (no unit)

Briefly, solubility (mole fraction) measured for N=C(N)N.O=[N+]([O-])O : 0.0302

----------
Conditions: in n-propanol, 328.05 K
measureName: solubility (mole fraction)

Short answer for N=C(N)N.O=[N+]([O-])O : solubility (mole fraction) was 0.012

----------
Details: in methanol, 318.25 K
measureName: solubility (mole fraction)
Give the figure by itself; no unit, no explanation.

Entry under test: N=C(N)N.O=[N+]([O-])O . Its solubility (mole fraction) was 0.0227

----------
Conditions: in methanol, 323.35 K
measureName: solubility (mole fraction)
# answer = number (no unit)

// solubility (mole fraction) lookup, compound = N=C(N)N.O=[N+]([O-])O , result: 0.0264

----------
Conditions: in water, 283.35 K
measureName: solubility (mole fraction)
// keep it numeric: no unit symbol after the value

The compound N=C(N)N.O=[N+]([O-])O showed solubility (mole fraction) equal to 0.0112

----------
Conditions: in n-propanol, 318.25 K
measureName: solubility (mole fraction)
Write the value as a bare number.

The reported value for N=C(N)N.O=[N+]([O-])O in terms of solubility (mole fraction) is 0.0077

----------
Settings: in water, 332.85 K
measureName: solubility (mole fraction)
Answer using only a numeral; do not append any unit.

Short answer for N=C(N)N.O=[N+]([O-])O : solubility (mole fraction) was 0.0511

----------
Details: in water, 303.15 K
measureName: solubility (mole fraction)
No unit in the answer, only the number.

// field: solubility (mole fraction); key: N=C(N)N.O=[N+]([O-])O ; value = 0.0222

----------
Conditions: in ethanol, 278.05 K
measureName: solubility (mole fraction)
Answer with a number only.

# compound N=C(N)N.O=[N+]([O-])O ; its solubility (mole fraction) = 0.003

----------
Conditions: in water, 298.25 K
measureName: solubility (mole fraction)

The recorded solubility (mole fraction) for entry N=C(N)N.O=[N+]([O-])O equals 0.019

----------
Conditions: in methanol, 328.05 K
measureName: solubility (mole fraction)
Output: the number by itself.

Kindly note the recorded solubility (mole fraction) for N=C(N)N.O=[N+]([O-])O , which is 0.0305

----------
Conditions: in ethanol, 313.05 K
measureName: solubility (mole fraction)
Respond using a number only.

The recorded solubility (mole fraction) for N=C(N)N.O=[N+]([O-])O is 0.0094

----------
Details: in n-propanol, 323.15 K
measureName: solubility (mole fraction)

Lookup result for N=C(N)N.O=[N+]([O-])O ; measured solubility (mole fraction): 0.0092

----------
Details: in acetone, 308.15 K
measureName: solubility (mole fraction)

So, N=C(N)N.O=[N+]([O-])O ? Its solubility (mole fraction) was 0.0092

----------
Settings: in n-propanol, 283.25 K
measureName: solubility (mole fraction)
Reply briefly: the number, and no unit.

Form field solubility (mole fraction), entry N=C(N)N.O=[N+]([O-])O : 0.0013

----------
Conditions: in methanol, 313.15 K
measureName: solubility (mole fraction)

# compound N=C(N)N.O=[N+]([O-])O ; its solubility (mole fraction) = 0.0198

----------
Conditions: in ethanol, 303.25 K
measureName: solubility (mole fraction)
Just the number.

The compound identified as N=C(N)N.O=[N+]([O-])O registered its solubility (mole fraction) at 0.007

----------
Settings: in ethanol, 308.25 K
measureName: solubility (mole fraction)
Output: the number by itself.

Lab book: solubility (mole fraction) of N=C(N)N.O=[N+]([O-])O noted as 0.0081

----------
Settings: in acetone, 293.15 K
measureName: solubility (mole fraction)
Output spec: single numeric token, no unit.

The compound listed as N=C(N)N.O=[N+]([O-])O shows solubility (mole fraction) equal to 0.0016

----------
Conditions: in n-propanol, 303.15 K
measureName: solubility (mole fraction)
Respond with the number and no other words.

Lab note: measured solubility (mole fraction) of N=C(N)N.O=[N+]([O-])O was 0.0041

----------
Details: in methanol, 298.35 K
measureName: solubility (mole fraction)
Just the number, please.

The molecule listed as N=C(N)N.O=[N+]([O-])O has a reported solubility (mole fraction) of 0.0126
